Test system: Mycobacterium tuberculosis Erdman (autoluminescent)
Assay: total FIC50 (Loewe) at 50% inhibition, three-drug combination (log2); higher = more antagonistic
Conditions: in vitro model: acidic pH 5.7; time point: constant (~7 days, model-specific)
Answer each item with its documented total FIC50.
Answers are plain numbers.

Completed entries (count: 2):
[
  {
    "Molecule": "NNC(=O)c1ccncc1 [isoniazid] + O=[N+]([O-])c1cn2c(n1)OC[C@@H](OCc1ccc(OC(F)(F)F)cc1)C2 [pretomanid] + NC(=O)c1cnccn1 [pyrazinamide]",
    "Attribute measured": "total FIC50",
    "Value measured": -0.198
  },
  {
    "Molecule": "COc1nc2ccc(Br)cc2cc1[C@@H](c1ccccc1)[C@@](O)(CCN(C)C)c1cccc2ccccc12 [bedaquiline] + CC[C@@H](CO)NCCN[C@@H](CC)CO [ethambutol] + NC(=O)c1cnccn1 [pyrazinamide]",
    "Attribute measured": "total FIC50",
    "Value measured": -0.0886
  }
]

IN: I would be grateful if you could share the reported total FIC50 for NC(=O)c1cnccn1 [pyrazinamide] + CO[C@H]1/C=C/O[C@@]2(C)Oc3c(C)c(O)c4c(O)c(c(/C=N/N5CCN(C6CCCC6)CC5)c(O)c4c3C2=O)NC(=O)/C(C)=C\C=C\[C@H](C)[C@H](O)[C@@H](C)[C@@H](O)[C@@H](C)[C@H](OC(C)=O)[C@@H]1C [rifapentine] + CO[C@H]1/C=C/O[C@@]2(C)Oc3c(C)c(O)c4c(O)c(c(/C=N/N5CCN(C)CC5)c(O)c4c3C2=O)NC(=O)/C(C)=C\C=C\[C@H](C)[C@H](O)[C@@H](C)[C@@H](O)[C@@H](C)[C@H](OC(C)=O)[C@@H]1C .
OUT: -0.178

###

Tested on: Mycobacterium tuberculosis Erdman (autoluminescent)
Assay: GRinf, maximum normalised growth rate inhibition (unitless (-1 to 1)); higher = less effect (negative = killing)
Settings: in vitro model: cholesterol 0.05 mM; time point: constant (~7 days, model-specific)
Attribute measured: GRinf
Answers are plain numbers.

Below, each entry is followed by its recorded GRinf result.
[
  {
    "Compound": "CC(=O)NC[C@H]1CN(c2ccc(N3CCOCC3)c(F)c2)C(=O)O1 [linezolid]",
    "GRinf": -0.0397
  },
  {
    "Compound": "CO[C@H]1/C=C/O[C@@]2(C)Oc3c(C)c(O)c4c(O)c(c(/C=N/N5CCN(C6CCCC6)CC5)c(O)c4c3C2=O)NC(=O)/C(C)=C\\C=C\\[C@H](C)[C@H](O)[C@@H](C)[C@@H](O)[C@@H](C)[C@H](OC(C)=O)[C@@H]1C [rifapentine]",
    "GRinf": 0.164
  },
  {
    "Compound": "COc1nc2ccc(Br)cc2cc1[C@@H](c1ccccc1)[C@@](O)(CCN(C)C)c1cccc2ccccc12 [bedaquiline]",
    "GRinf": -0.328
  }
]

IN: Reported GRinf, compound O=[N+]([O-])c1cn2c(n1)OC[C@@H](OCc1ccc(OC(F)(F)F)cc1)C2 [pretomanid] : ____
OUT: -0.205

###

Give measured Einf for each item. Keep answers brief.
Tested on: Mycobacterium tuberculosis Erdman (autoluminescent)
Experiment: Einf, fitted maximum growth inhibition of combination (fraction); higher = stronger maximal inhibition
Details: in vitro model: cholesterol 0.05 mM; time point: constant (~7 days, model-specific)

Some entries whose results are on file:
[
  {
    "Compound": "CC(C)/N=c1\\cc2n(-c3ccc(Cl)cc3)c3ccccc3nc-2cc1Nc1ccc(Cl)cc1 [clofazimine] + O=[N+]([O-])c1cn2c(n1)OC[C@@H](OCc1ccc(OC(F)(F)F)cc1)C2 [pretomanid]",
    "Value measured": 0.704
  },
  {
    "Compound": "COc1nc2ccc(Br)cc2cc1[C@@H](c1ccccc1)[C@@](O)(CCN(C)C)c1cccc2ccccc12 [bedaquiline] + O=[N+]([O-])c1cn2c(n1)OC[C@@H](OCc1ccc(OC(F)(F)F)cc1)C2 [pretomanid]",
    "Value measured": 0.737
  },
  {
    "Compound": "CC[C@@H](CO)NCCN[C@@H](CC)CO [ethambutol] + COc1c(N2C[C@@H]3CCCN[C@@H]3C2)c(F)cc2c(=O)c(C(=O)O)cn(C3CC3)c12 [moxifloxacin]",
    "Value measured": 0.731
  },
  {
    "Compound": "CC(=O)NC[C@H]1CN(c2ccc(N3CCOCC3)c(F)c2)C(=O)O1 [linezolid] + O=[N+]([O-])c1cn2c(n1)OC[C@@H](OCc1ccc(OC(F)(F)F)cc1)C2 [pretomanid]",
    "Value measured": 0.708
  }
]

From here, focus on the item given below.
IN: Consider the compound COc1nc2ccc(Br)cc2cc1[C@@H](c1ccccc1)[C@@](O)(CCN(C)C)c1cccc2ccccc12 [bedaquiline] + CC(=O)NC[C@H]1CN(c2ccc(N3CCOCC3)c(F)c2)C(=O)O1 [linezolid] and give its measured Einf.
OUT: 0.803

Taken from the supplement of paper PMC8617591.
